# TEST TARGET: MRGPRX4 + RAMP3 (Homo sapiens, UniProt Q96LA9)
# Construct: expressed in transfected cells; host or cells: HEK293T
# PROTOCOL DESCRIPTION: IP1 accumulation, MRGPRX4 coexpressed with RAMP3
# Assay type: cell-based
# CONDITION DETAILS: Tet-On MRGPRX4:RAMP3 Ratio 1:0.5 (Fig. S5F); read-out: IP1 EC50
pEC50: −log10 of the molar value.
MEASURED ATTRIBUTE: pEC50

[
  {
    "COMPOUND": "CC(C)[C@H]1CC[C@H](C(=O)N[C@H](Cc2ccccc2)C(=O)O)CC1 [Nateglinide]",
    "MEASURED NUMBER": 5.14
  }
]

* * *

# TEST TARGET: MRGPRX4 + RAMP3 (Homo sapiens, UniProt Q96LA9)
# Construct: expressed in transfected cells; host or cells: HEK293T
# PROTOCOL DESCRIPTION: IP1 accumulation, MRGPRX4 coexpressed with RAMP3
# Assay type: cell-based
# CONDITION DETAILS: MRGPRX4 + RAMP3 2 pg (Fig. S3); normalized per agonist; read-out: IP1 EC50
pEC50: −log10 of the molar value.

[
  {
    "COMPOUND": "CC(C)[C@H]1CC[C@H](C(=O)N[C@H](Cc2ccccc2)C(=O)O)CC1 [Nateglinide]",
    "pEC50": 4.84
  }
]

* * *

# TEST TARGET: MRGPRX4 + RAMP2 (Homo sapiens)
# Construct: expressed in transfected cells; host or cells: HEK293T
# Sequence (Q96LA9 whole entry): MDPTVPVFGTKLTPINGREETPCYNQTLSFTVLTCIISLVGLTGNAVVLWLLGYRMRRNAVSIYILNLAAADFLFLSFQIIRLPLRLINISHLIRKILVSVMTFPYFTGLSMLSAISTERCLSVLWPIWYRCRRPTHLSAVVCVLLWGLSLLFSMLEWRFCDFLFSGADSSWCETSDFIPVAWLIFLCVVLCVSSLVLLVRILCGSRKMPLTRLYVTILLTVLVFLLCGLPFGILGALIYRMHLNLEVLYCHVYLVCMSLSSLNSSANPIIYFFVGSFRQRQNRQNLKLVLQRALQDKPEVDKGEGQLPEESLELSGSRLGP
# PROTOCOL DESCRIPTION: IP1 accumulation, MRGPRX4 coexpressed with RAMP2
# Format: cell-based
# CONDITION DETAILS: Tet-On MRGPRX4:RAMP2 Ratio 1:0.75 (Fig. S5E); read-out: IP1 EC50
pEC50: −log10 of the molar value.

[
  {
    "MOLECULE": "CC(C)[C@H]1CC[C@H](C(=O)N[C@H](Cc2ccccc2)C(=O)O)CC1 [Nateglinide]",
    "TEST TARGET": "MRGPRX4 + RAMP2 (Homo sapiens)",
    "pEC50": 4.98
  }
]

* * *

# TEST TARGET: MRGPRX4 (Homo sapiens)
# Construct: expressed in transfected cells; host or cells: HEK293T
# PROTOCOL DESCRIPTION: IP1 accumulation HTRF assay, MRGPRX4
# Assay type: cell-based
# CONDITION DETAILS: MRGPRX4, HEK293T (Fig. 1A); read-out: EC50 concentration, IP1 accumulation
pEC50: −log10 of the molar value.
MEASURED ATTRIBUTE: pEC50

[
  {
    "MOLECULE": "CC(C)[C@H]1CC[C@H](C(=O)N[C@H](Cc2ccccc2)C(=O)O)CC1 [Nateglinide]",
    "MEASURED NUMBER": 4.97
  }
]

* * *

# TEST TARGET: MRGPRX4 (Homo sapiens, UniProt Q96LA9)
# Construct: expressed in transfected cells; host or cells: HEK293T
# PROTOCOL DESCRIPTION: IP1 accumulation HTRF assay, MRGPRX4
# Type: cell-based
# CONDITION DETAILS: Tet-On MRGPRX4 1pg/cell, Dox 3300 ng/mL (Fig. S5B); read-out: IP1 EC50
MEASURED ATTRIBUTE: EC50 (µM)

[
  {
    "COMPOUND": "CC(C)[C@H]1CC[C@H](C(=O)N[C@H](Cc2ccccc2)C(=O)O)CC1 [Nateglinide]",
    "MEASURED ATTRIBUTE": "EC50",
    "UNIT TAG": "µM",
    "MEASURED NUMBER": 9.26
  }
]

* * *

# TEST TARGET: MRGPRX4 (Homo sapiens, UniProt Q96LA9)
# Construct: expressed in transfected cells; host or cells: HEK293T
# PROTOCOL DESCRIPTION: IP1 accumulation HTRF assay, MRGPRX4
# Assay type: cell-based
# CONDITION DETAILS: MRGPRX4 DNA 1 pg/cell (Fig. S1); read-out: IP1 EC50

[
  {
    "MOLECULE": "CC(C)[C@H]1CC[C@H](C(=O)N[C@H](Cc2ccccc2)C(=O)O)CC1 [Nateglinide]",
    "TEST TARGET": "MRGPRX4 (Homo sapiens, UniProt Q96LA9)",
    "EC50": "9.79 µM"
  }
]

* * *

# TEST TARGET: MRGPRX4 + RAMP1 (Homo sapiens)
# Construct: expressed in transfected cells; host or cells: HEK293T
# PROTOCOL DESCRIPTION: IP1 accumulation, MRGPRX4 coexpressed with RAMP1
# Assay type: cell-based
# CONDITION DETAILS: Tet-On MRGPRX4:RAMP1 Ratio 1:0.75 (Fig. S5D); read-out: IP1 EC50
pEC50: −log10 of the molar value.

[
  {
    "COMPOUND": "CC(C)[C@H]1CC[C@H](C(=O)N[C@H](Cc2ccccc2)C(=O)O)CC1 [Nateglinide]",
    "pEC50": 5.23
  }
]
